Sourced from ChEMBL document CHEMBL3244229

# Tested on: Mus musculus
# assay.summary: Analgesic activity in ip dosed ddY mouse assessed as prevention of pseudoavoidance reflex co-administered with 5 mg/kg, sc morphine hydrochloride by tail pinch method
# Type: functional
measurement.type: ED50 (mg/kg)
Expressed in mg/kg, but write only the number.

Exercise: State ED50 on Mus musculus. Entry: COc1cc(CC(=O)O)cc(-c2ccc(Cl)cc2)c1
Key: 38

Exercise: # assay system Mus musculus: give ED50 of CC(C)Cc1ccc(C(C)C(=O)O)cc1 (centres undefined) [IBUPROFEN]
Key: 69

Exercise: Please indicate recorded ED50 of COc1ccc(-c2cc(CC(=O)O)cc(OC)c2)cc1 measured with Mus musculus.
Key: 165

Exercise: State, for Mus musculus, measured ED50 of the compound listed here: COc1cc(CC(=O)O)cc(-c2ccccc2Cl)c1
Key: 195

###

# assay.summary: Acute toxicity in ip dosed ddY mouse measured after 168 hrs
# Type: organism-based
# test.context: in vivo
The reader will find reported LD50 at 168 h values listed item by item below.
Reply with just the number (in mg/kg).

The examples below pair each entry with its known result.
* COc1cc(CC(=O)O)cc(-c2ccc(F)cc2)c1 | 565
* COC(=O)Cc1cc(OS(C)(=O)=O)cc(-c2ccc(Cl)cc2)c1 | 1130

Exercise: Using the record for COc1cc(CC(=O)O)cc(C(C)C)c1 , state its measured LD50 at 168 h.
Key: 1600

Exercise: Please supply the value of reported LD50 at 168 h for the item CCCCOc1cc(C)cc(CC(=O)O)c1
Key: 673

Exercise: Look up and report measured LD50 at 168 h for this entry: CC(C)COc1cc(CC(=O)O)cc(-c2ccc(Cl)cc2)c1
Key: 139

Exercise: Identify measured LD50 at 168 h associated with CC(C)Cc1ccc(C(C)C(=O)O)cc1 (stereo unspecified)
Key: 336

Exercise: Recall and state the measured LD50 at 168 h for COc1cc(C(=O)O)cc(-c2ccc(Cl)cc2)c1 .
Key: 1130

Exercise: Read the entry CCCOc1cc(CC(=O)O)cc(-c2ccccc2)c1 and write its reported LD50 at 168 h.
Key: 475

Exercise: Determine from records and report LD50 at 168 h for COc1cc(C)cc(CC(=O)O)c1
Key: 673

Exercise: Report LD50 at 168 h for O=C(O)Cc1cc(O)cc(-c2ccc(Cl)cc2)c1
Key: 141

###

# assay.summary: Acute toxicity in ip dosed ddY mouse measured after 168 hrs
# Assay type: organism-based
# test.context: in vivo
measurement.type: LD50 at 168 h (mg/kg)
Lab book: enter the figure in mg/kg, no units written.

* CCCCCOc1cc(CC(=O)O)cc(-c2ccccc2)c1 | 1130
* Cc1cc(CC(=O)O)cc(OCC(C)C)c1 | 1000
* COc1ccc(-c2cc(CC(=O)O)cc(OC)c2)cc1 | 636
* COc1cc(CC(=O)O)cc(-c2ccc(Cl)cc2)c1 | 570
* COc1cc(CC(=O)O)cc(C2CCCCC2)c1 | 564

Exercise: Provide measured LD50 at 168 h value, entry: COc1cc(CC(=O)O)cc(-c2ccccc2)c1
Key: 566

###

# assay.summary: Acute toxicity in ip dosed ddY mouse measured after 168 hrs
# Format: organism-based
# test.context: in vivo
measurement.type: LD50 at 168 h (mg/kg)
Provide only the numeric value, understood in mg/kg.

Below, each entry is followed by its recorded LD50 at 168 h result.
• COc1cccc(CC(=O)O)c1 = 504
• COc1cc(CCO)cc(-c2ccc(Cl)cc2)c1 = 673
• COc1cc(CCC(=O)O)cc(-c2ccc(Cl)cc2)c1 = 284

Exercise: Return value of LD50 at 168 h for input COc1cc(CC(=O)O)cc(-c2ccc(Cl)cc2Cl)c1 , no commentary.
Key: 336

Exercise: For CCCCCOc1cc(CC(=O)O)cc(-c2ccc(Cl)cc2)c1 , write its LD50 at 168 h.
Key: 475
